Origin of values: patent US20140120083A1

pIC50: −log10 of the molar value.
Here's a batch of compounds along with measured pIC50 for PI3K α (Homo sapiens, UniProt P42336).

Asked: // fetch PI3K α (Homo sapiens, UniProt P42336) pIC50 for Cc1cccc2cc(Cn3nc(-c4cnn(CCO)c4)c4c(N)ncnc43)n(-c3ccccc3F)c(=O)c12 [Compound 162]
Given back: < 5.00

Asked: Find the measured pIC50: item Cc1cccc2cc(Cn3nc(-c4cccc(F)c4)c4c(N)ncnc43)n(-c3ccccc3F)c(=O)c12 [Compound 40] , target or system PI3K α (Homo sapiens, UniProt P42336).
Given back: < 5.00

Asked: Notebook entry, PI3K α (Homo sapiens, UniProt P42336) assay: pIC50 of Cc1ccccc1-n1c(Cn2nc(/C=C3/SC(=O)NC3=O)c3c(N)ncnc32)cc2cccc(C)c2c1=O [Compound 173] = ?
Given back: > 5.00

Asked: Provide value of pIC50 for this record tested with PI3K α (Homo sapiens, UniProt P42336): Cc1cccc2cc([C@H](C)Nc3ncnc4[nH]ccc34)n(C3CC3)c(=O)c12 [Compound 273]
Sequence (P42336 whole entry): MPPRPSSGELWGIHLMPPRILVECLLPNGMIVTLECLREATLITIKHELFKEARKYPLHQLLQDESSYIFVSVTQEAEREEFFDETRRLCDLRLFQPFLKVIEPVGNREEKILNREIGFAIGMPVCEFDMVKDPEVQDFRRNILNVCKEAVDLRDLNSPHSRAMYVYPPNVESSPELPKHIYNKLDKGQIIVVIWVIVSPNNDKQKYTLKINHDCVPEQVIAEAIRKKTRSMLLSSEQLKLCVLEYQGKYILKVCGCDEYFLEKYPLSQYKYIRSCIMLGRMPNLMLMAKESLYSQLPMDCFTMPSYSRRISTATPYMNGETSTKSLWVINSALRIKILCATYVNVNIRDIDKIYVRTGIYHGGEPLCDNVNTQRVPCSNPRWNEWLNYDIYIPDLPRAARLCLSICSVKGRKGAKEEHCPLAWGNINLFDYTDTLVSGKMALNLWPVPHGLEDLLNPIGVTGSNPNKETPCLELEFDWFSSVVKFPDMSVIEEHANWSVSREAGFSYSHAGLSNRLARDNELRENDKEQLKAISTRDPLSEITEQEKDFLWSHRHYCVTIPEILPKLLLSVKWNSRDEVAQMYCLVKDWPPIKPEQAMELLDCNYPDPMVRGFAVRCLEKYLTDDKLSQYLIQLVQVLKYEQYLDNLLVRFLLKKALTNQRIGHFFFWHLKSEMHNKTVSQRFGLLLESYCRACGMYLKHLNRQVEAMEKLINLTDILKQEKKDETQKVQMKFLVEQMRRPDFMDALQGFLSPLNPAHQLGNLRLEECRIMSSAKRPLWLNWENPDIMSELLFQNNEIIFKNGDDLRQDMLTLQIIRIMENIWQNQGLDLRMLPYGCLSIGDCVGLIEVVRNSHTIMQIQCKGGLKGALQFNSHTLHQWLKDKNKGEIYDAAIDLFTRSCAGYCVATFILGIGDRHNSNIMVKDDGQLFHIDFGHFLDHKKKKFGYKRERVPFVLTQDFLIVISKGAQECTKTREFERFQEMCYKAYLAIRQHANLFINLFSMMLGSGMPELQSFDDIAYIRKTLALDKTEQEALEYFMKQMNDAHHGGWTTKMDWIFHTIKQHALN
Sequence (P27986 whole entry partner): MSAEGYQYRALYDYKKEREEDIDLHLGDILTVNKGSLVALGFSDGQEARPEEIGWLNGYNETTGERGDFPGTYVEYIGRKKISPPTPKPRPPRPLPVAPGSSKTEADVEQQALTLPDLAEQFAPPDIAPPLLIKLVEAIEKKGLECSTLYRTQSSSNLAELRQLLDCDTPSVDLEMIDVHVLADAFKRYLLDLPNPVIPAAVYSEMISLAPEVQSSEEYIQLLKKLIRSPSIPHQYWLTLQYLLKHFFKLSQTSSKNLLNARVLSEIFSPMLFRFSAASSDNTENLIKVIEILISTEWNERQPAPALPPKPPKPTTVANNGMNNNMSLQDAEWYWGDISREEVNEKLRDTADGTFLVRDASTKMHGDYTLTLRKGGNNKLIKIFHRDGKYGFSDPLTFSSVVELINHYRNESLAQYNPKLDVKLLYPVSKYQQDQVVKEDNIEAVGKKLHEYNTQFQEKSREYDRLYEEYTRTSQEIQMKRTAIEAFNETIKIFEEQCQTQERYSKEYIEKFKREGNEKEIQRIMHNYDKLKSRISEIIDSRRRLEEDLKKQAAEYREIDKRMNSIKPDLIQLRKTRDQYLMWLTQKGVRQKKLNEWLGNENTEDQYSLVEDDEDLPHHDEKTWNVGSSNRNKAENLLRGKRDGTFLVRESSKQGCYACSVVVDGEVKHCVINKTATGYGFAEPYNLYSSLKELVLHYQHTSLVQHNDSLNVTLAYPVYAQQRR
Given back: > 5.00

Asked: Can you look up pIC50 on PI3K α (Homo sapiens, UniProt P42336) for Cc1cccc2cc(C(C)Nc3ncnc4[nH]cnc34)n(-c3c(F)cccc3F)c(=O)c12 (stereo not shown) [Compound 216] ?
Given back: < 5.00

Asked: Kindly state the measured pIC50 obtained for Cc1cccc2cc([C@H](C)Nc3ncnc4[nH]cnc34)n(-c3cccc(F)c3)c(=O)c12 [Compound 290] with PI3K α (Homo sapiens, UniProt P42336).
Given back: < 5.00

Asked: Requested read-out pIC50, target or system PI3K α (Homo sapiens, UniProt P42336), entry Cc1ccccc1-n1c(Cn2nc(-c3cnc4[nH]ccc4c3)c3c(N)ncnc32)cc2cccc(C)c2c1=O [Compound 48]
Given back: < 5.00

----------
Field: pIC50. Provide a value for each of the compounds that follow.
pIC50: −log10 of the molar value.

Asked: Form entry - test system: PI3K α (Homo sapiens); read-out: pIC50; compound: `Cc1ccccc1-n1c(Cn2nc(Cl)c3c(N)ncnc32)cc2cccc(C)c2c1=O`
Given back: < 5.00

Asked: Fill in the recorded pIC50 for this compound, with PI3K α (Homo sapiens) as test system: `CC(=O)Nc1nc2ccc(-c3nn(Cc4cc5cccc(C)c5c(=O)n4-c4ccccc4C)c4ncnc(N)c34)cc2s1`
Given back: > 6.00

Asked: Form: Entry = `Cc1cccc2cc(Cn3nc(-c4cc(O)cc(F)c4)c4c(N)ncnc43)n(C3CCC3)c(=O)c12` | System = PI3K α (Homo sapiens) | pIC50 = ____
Given back: > 5.00

Asked: Query the reported pIC50 for PI3K α (Homo sapiens); item: `Cc1cccc2cc([C@H](C)Nc3nc(N)ncc3Cl)n(-c3ccccc3)c(=O)c12`
Given back: < 5.00

Asked: Give the reported pIC50 for `Cc1cccc2cc(Cn3nc(C#C[C@@H](C)O)c4c(N)ncnc43)n(C3CCCCC3)c(=O)c12` (system: PI3K α (Homo sapiens)).
Given back: < 5.00

Asked: Recorded pIC50 for Cc1cccc2cc(C(C)Nc3ncnc4[nH]cnc34)n(-c3ccccc3)c(=O)c12 (stereo not shown) with PI3K α (Homo sapiens), please?
Given back: > 5.00

Asked: Item: `Cc1cccc2cc([C@H](C)Nc3ncc(C(F)(F)F)c(N)n3)n(-c3ccccc3)c(=O)c12` Test system: PI3K α (Homo sapiens) Read-out: pIC50 Value: ?
Given back: < 5.00

Asked: Notebook: pull reported pIC50 for PI3K α (Homo sapiens), entry CCC(Nc1ncnc2[nH]cnc12)c1cc2cccc(C)c2c(=O)n1C1CCC1 (stereo not shown)
Given back: < 5.00

Asked: Report pIC50 for `Cc1cccc2cc(Cn3nc(I)c4c(N)ncnc43)n(C3CCCCC3)c(=O)c12` tested on PI3K α (Homo sapiens).
Given back: < 5.00

Asked: Provide value of pIC50 for this record tested with PI3K α (Homo sapiens): `Cc1ccccc1-n1c(Cn2nc(-c3cc(O)cc(F)c3)c3c(N)ncnc32)cc2cccc(F)c2c1=O`
Given back: < 5.00

Asked: Param readout= pIC50; system= PI3K α (Homo sapiens); entry= `Cc1ccccc1-n1c(Cn2nc(-c3cnn(CCO)c3)c3c(N)ncnc32)cc2cccc(C)c2c1=O` ; returns value.
Given back: < 5.00

Asked: Under PI3K α (Homo sapiens): pIC50 value of Cc1cccc2cc(C(C)Nc3ncnc4[nH]cnc34)n(C3CCC3)c(=O)c12 (stereo not shown) ?
Given back: < 5.00

Asked: Reported pIC50 for PI3K α (Homo sapiens), given `Cc1ccccc1-n1c(Cn2nc(-c3ccc4ncnc(N)c4c3)c3c(N)ncnc32)cc2cccc(C)c2c1=O` ?
Given back: > 5.00

Asked: Give the reported pIC50 for CCC(Nc1ncnc2[nH]cnc12)c1cc2cccc(C)c2c(=O)n1-c1cc(F)cc(F)c1 (stereo not shown) (system: PI3K α (Homo sapiens)).
Given back: < 5.00

Asked: Which pIC50 is reported with PI3K α (Homo sapiens) for this entry: `Cc1cccc2cc(Cn3nc(-c4ccc(F)c(O)c4)c4c(N)ncnc43)n(-c3ccccc3F)c(=O)c12` ?
Given back: < 5.00

Asked: Any idea what pIC50 came out for `Cc1cccc2cc(Cn3nc(-c4cc(O)cc(F)c4)c4c(N)ncnc43)n(-c3ccccc3F)c(=O)c12` on PI3K α (Homo sapiens)?
Given back: > 5.00

----------
# PROTOCOL_TEXT: Embryo/fetal developmental toxicity, rat
# COND: female, rat, in vivo
MEASURED_ENDPOINT: NOAEL
Give the number first and the unit second.

Asked: Which value of NOAEL has been reported for `C[C@H](Nc1ncnc2[nH]cnc12)c1cc2cccc(Cl)c2c(=O)n1-c1ccccc1` in the records?
Given back: 35 mg/kg/day

----------
# PROTOCOL_TEXT: Clinical study in healthy adult subjects, pharmacokinetics
# Assay type: in vivo, human
# COND: human, plasma, oral, 1 mg, 1 mg Q12 h, Day 14; mean (% CV); read-out: Cmax
MEASURED_ENDPOINT: Cmax
Please make sure the unit comes right after the number.

Asked: Would you kindly share the measured Cmax for C[C@H](Nc1ncnc2[nH]cnc12)c1cc2cccc(Cl)c2c(=O)n1-c1ccccc1 [Compound 292] ?
Given back: 66.8 ng/mL

----------
# PROTOCOL_TEXT: Phase 1 study in advanced hematologic malignancies, pharmacokinetics
# Format: in vivo, human
# COND: human, in vivo, oral; patients; read-out: eliminating t1/2
MEASURED_ENDPOINT: half-life

Asked: Given the entry `C[C@H](Nc1ncnc2[nH]cnc12)c1cc2cccc(Cl)c2c(=O)n1-c1ccccc1` , report its measured half-life.
Given back: 6 to 10 h

----------
MEASURED_ENDPOINT: IC50

Asked: Param readout= IC50; system= UniProt:P42336; entry= `Cc1ccccc1-n1c(Cn2nc(-c3ccc4nc(N)oc4c3)c3c(N)ncnc32)cc2cccc(C)c2c1=O` ; returns value.
Given back: < 10 µM

Asked: # value lookup — system UniProt:P42336, readout IC50, item Cc1cccc2cc(C(C)Nc3ncnc4[nH]cnc34)n(-c3ccccc3F)c(=O)c12 (stereo not shown)
Given back: < 10 µM

Asked: # query: IC50 | item `Cc1cccc2cc(Cn3nc(I)c4c(N)ncnc43)n(C3CCC3)c(=O)c12` | system: UniProt:P42336
Given back: > 10 µM

Asked: What is its IC50 for UniProt:P42336? Entry: `Cc1cccc2cc(Cn3nc(-c4ccc(F)c(O)c4)c4c(N)ncnc43)n(C3CCCC3)c(=O)c12`
Given back: > 10 µM

----------
# PROTOCOL_TEXT: Pharmacokinetics, rat
# Assay type: in vivo, Sprague-Dawley rats
# COND: Sprague-Dawley, in vivo, IV, 2 mg/kg, read-out: T1/2 (converted)
MEASURED_ENDPOINT: half-life (min)
# output: bare number, implied unit min

Asked: Could you share which half-life value was measured for C[C@H](Nc1ncnc2[nH]cnc12)c1cc2cccc(Cl)c2c(=O)n1-c1ccccc1 [Compound 292] ?
Given back: 43.8

----------
# PROTOCOL_TEXT: Pharmacokinetics, dog
# Type: in vivo, Beagle dogs
# COND: beagle, in vivo, iv, 1 mg/kg, IV, 1 mg/kg, read-out: Cmax (reported value is C0)
MEASURED_ENDPOINT: Cmax (ng/mL)
Output spec: scalar in ng/mL, unitless text.

Asked: What value of Cmax has been recorded for this entry: `C[C@H](Nc1ncnc2[nH]cnc12)c1cc2cccc(Cl)c2c(=O)n1-c1ccccc1`
Given back: 1800

----------
# PROTOCOL_TEXT: Pharmacokinetics, dog
# Type: in vivo, Beagle dogs
# COND: beagle, in vivo, iv, 0.5 mg/kg, IV, 0.5 mg/kg, read-out: Cmax (reported value is C0)
MEASURED_ENDPOINT: Cmax (µg/mL)
Write the number in µg/mL without appending the unit.

Asked: // query Cmax value for entry C[C@H](Nc1ncnc2[nH]cnc12)c1cc2cccc(Cl)c2c(=O)n1-c1ccccc1 [Compound 292]
Given back: 4.41
